test: Highest frequency of acute liver toxicity observed during clinical trials, expressed as a percentage. [column '% AIGUE' in source]; details: human
observed.property: Hepatotoxicity (acute) (%)

molecule="CCN1C(=O)NC(c2ccccc2)C1=O (stereo not given)" value_unit=% result_value=0
molecule="CCC1(c2ccccc2)C(=O)NC(=O)N(C)C1=O (stereo not given)" value_unit=% result_value=0
molecule=O=C1c2c(O)ccc(O)c2C(=O)c2c(NCCNCCO)ccc(NCCNCCO)c21 value_unit=% result_value=42.8
molecule=CC1=C(/C=C/C(C)=C/C=C/C(C)=C/C(=O)O)C(C)(C)CCC1 value_unit=% result_value=16.7
molecule="N[C@@H]1CN(c2c(F)cc3c(=O)c(C(=O)O)cn([C@@H]4C[C@@H]4F)c3c2Cl)CC12CC2 [SITAFLOXACIN ANHYDROUS]" value_unit=% result_value=0
molecule=Cc1nc2n(c(=O)c1CCN1CCC(c3noc4cc(F)ccc34)CC1)CCCC2 value_unit=% result_value=4
molecule="CCC(C(=O)NC(N)=O)c1ccccc1 (stereo not given) [PHENETURIDE]" value_unit=% result_value=0
molecule=CO[C@@H]1[C@@H](OC(N)=O)[C@@H](O)[C@H](Oc2ccc3c(O)c(NC(=O)c4ccc(O)c(CC=C(C)C)c4)c(=O)oc3c2C)OC1(C)C value_unit=% result_value=0
molecule="CCN1CC(CCN2CCOCC2)C(c2ccccc2)(c2ccccc2)C1=O (stereo not given)" value_unit=% result_value=0
molecule=CO/N=C(\C(=O)N[C@@H]1C(=O)N2C(C(=O)[O-])=C(C[n+]3ccn4ncccc43)CS[C@H]12)c1nsc(N)n1 value_unit=% result_value=0
molecule="NS(=O)(=O)c1cc(C2(O)NC(=O)c3ccccc32)ccc1Cl (stereo not given)" value_unit=% result_value=0
molecule="N#CN [CYANAMIDE]" value_unit=% result_value=0
molecule="CCNNC(=O)[C@@H]1[C@H](c2cc(OC)c(OC)c(OC)c2)c2cc3c(cc2[C@H](O)[C@H]1CO)OCO3 [MITOPODOZIDE]" value_unit=% result_value=0
molecule="CC(=O)/N=c1/sc(S(N)(=O)=O)nn1C [METHAZOLAMIDE]" value_unit=% result_value=0
molecule=Cc1c(O)cccc1C(=O)N[C@@H](CSc1ccccc1)[C@H](O)CN1C[C@H]2CCCC[C@H]2C[C@H]1C(=O)NC(C)(C)C value_unit=% result_value=7.4
molecule=CN1CCN(C(=S)Nc2ccc(Nc3ccc([N+](=O)[O-])cc3)cc2)CC1 value_unit=% result_value=0
molecule=COc1cccc2c1C(=O)c1c(O)c3c(c(O)c1C2=O)C[C@@](O)(C(=O)CO)C[C@@H]3O[C@H]1C[C@H](N)[C@H](O[C@@H]2CCCCO2)[C@H](C)O1 value_unit=% result_value=0
molecule=C[C@H]1CC(=O)C[C@@H]2CC[C@H]3[C@@H]4CC[C@H](O)[C@@]4(C)CC[C@@H]3[C@]21C value_unit=% result_value=0
molecule=O=C(O)CCCCCCNC1c2ccccc2CCc2ccccc21 value_unit=% result_value=0
molecule=CC(=O)N[C@@H]1[C@H](Oc2c3cc4cc2Oc2ccc(cc2Cl)[C@@H](O[C@@H]2O[C@@H](CO)[C@@H](O)[C@H](O)[C@@H]2NC(C)=O)[C@@H]2NC(=O)[C@H](NC(=O)[C@@H]4NC(=O)[C@H]4NC(=O)[C@@H](Cc5ccc(c(Cl)c5)O3)NC(=O)[C@H](N)c3ccc(O)c(c3)Oc3cc(O)cc4c3)c3ccc(O)c(c3)-c3c(O[C@H]4O[C@H](CO)[C@@H](O)[C@@H](O)[C@@H]4O)cc(O)cc3[C@@H](C(=O)O)NC2=O)O[C@@H](CO)[C@@H](O)[C@@H]1O value_unit=% result_value=0.9
molecule="Cc1ccc(S(=O)(=O)NC(=O)NN2CCCCCC2)cc1 [TOLAZAMIDE]" value_unit=% result_value=0
molecule="COc1cc(NC(C)CCCN)c2ncccc2c1 (stereo not given)" value_unit=% result_value=0
molecule="COC(=O)C1=C(C)NC(C)=C(C(=O)OC(C)C)C1c1cccc2nonc12 (stereo not given)" value_unit=% result_value=0
molecule=CC(=O)Nc1ccc(/C=N/NC(N)=S)cc1 value_unit=% result_value=2.5
molecule=COc1cc2oc(=O)c(C)c(C)c2cc1OCCCN1CCN(c2ccccc2OC)CC1 value_unit=% result_value=0
molecule=OCCN1CCN(CCCN2c3ccccc3Sc3ccc(C(F)(F)F)cc32)CC1 value_unit=% result_value=1
molecule=OC(CCCN1CCCCC1)(c1ccccc1)c1ccccc1 value_unit=% result_value=0
molecule=NC(=O)OC[C@@H]1[C@H](NC(=O)/C(=N\OCC(=O)O)c2csc(N)n2)C(=O)N1S(=O)(=O)O value_unit=% result_value=0
molecule=CC[C@]1(O)C[C@@H]2CN(CCc3c([nH]c4ccccc34)[C@@](C(=O)OC)(c3cc4c(cc3OC)N(C)[C@H]3[C@@](O)(C(N)=O)[C@H](O)[C@]5(CC)C=CCN6CC[C@]43[C@@H]65)C2)C1 value_unit=% result_value=0
molecule=CC(C)c1nc(CN(C)C(=O)N[C@H](C(=O)N[C@@H](Cc2ccccc2)C[C@H](O)[C@H](Cc2ccccc2)NC(=O)OCc2cncs2)C(C)C)cs1 value_unit=% result_value=32.1
